- Measured On: Alpha-1B adrenergic receptor (Homo sapiens)
- Sequence (P35368 whole entry): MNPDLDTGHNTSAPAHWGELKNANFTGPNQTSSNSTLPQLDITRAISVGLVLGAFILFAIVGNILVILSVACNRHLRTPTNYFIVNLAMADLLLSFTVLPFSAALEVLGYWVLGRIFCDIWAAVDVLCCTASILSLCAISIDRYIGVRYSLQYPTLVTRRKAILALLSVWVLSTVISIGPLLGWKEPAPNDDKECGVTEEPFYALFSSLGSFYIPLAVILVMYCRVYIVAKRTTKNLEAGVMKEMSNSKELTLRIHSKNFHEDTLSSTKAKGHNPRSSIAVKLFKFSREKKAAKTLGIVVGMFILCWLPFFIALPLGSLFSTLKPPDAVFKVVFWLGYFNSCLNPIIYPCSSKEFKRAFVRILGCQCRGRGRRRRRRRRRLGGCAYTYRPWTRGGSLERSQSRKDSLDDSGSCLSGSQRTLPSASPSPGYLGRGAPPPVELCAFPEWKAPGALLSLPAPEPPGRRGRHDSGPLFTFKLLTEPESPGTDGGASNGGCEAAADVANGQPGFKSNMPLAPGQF
- Protocol Notes: Compound was tested for the tissue binding affinity using [125I]- HEAT as radioligand to the human aorta Alpha-1B adrenergic receptor subtype.
- Type: tissue-based
Measured IC50, listed per entry.
Recorded Metric: IC50 (nM)

1. COc1cc2nc(N3CCN(C(=O)OCc4ccccc4)[C@H](C(=O)NC(C)(C)C)C3)nc(N)c2cc1OC : 8.8
2. COc1cc2nc(N3CCN[C@H](C(=O)NC(C)(C)C)C3)nc(N)c2cc1OC : 31

---

- Measured On: Alpha-1A adrenergic receptor (Rattus norvegicus)
- Sequence (P43140 whole entry): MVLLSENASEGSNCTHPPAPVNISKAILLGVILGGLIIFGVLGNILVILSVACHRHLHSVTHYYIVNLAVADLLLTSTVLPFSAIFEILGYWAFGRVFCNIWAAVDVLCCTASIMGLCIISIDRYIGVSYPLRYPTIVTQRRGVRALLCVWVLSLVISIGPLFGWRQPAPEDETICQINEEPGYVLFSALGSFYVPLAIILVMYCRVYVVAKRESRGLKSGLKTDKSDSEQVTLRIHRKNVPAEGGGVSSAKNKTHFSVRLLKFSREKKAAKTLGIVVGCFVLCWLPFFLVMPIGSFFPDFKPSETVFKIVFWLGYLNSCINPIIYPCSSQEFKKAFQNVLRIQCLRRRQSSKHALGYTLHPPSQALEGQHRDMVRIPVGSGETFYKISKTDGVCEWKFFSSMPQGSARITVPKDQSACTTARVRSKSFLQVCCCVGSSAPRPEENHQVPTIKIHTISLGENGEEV
- Protocol Notes: Compound was tested for the tissue binding affinity using [3H]- Prazosin as radioligand to the rat prostate Alpha-1A adrenergic receptor subtype
Recorded Metric: IC50

1) COc1cc2nc(N3CCN(C(=O)c4ccco4)[C@H](C(=O)NC(C)(C)C)C3)nc(N)c2cc1OC : 2000 nM

Numbers sourced from ChEMBL document CHEMBL1131601.
